Tested on: U-87 MG
Assay: Anti-tumor activity against human U87 MG cells by CCK-8 assay
Assay type: functional, cell-based, U-87MG ATCC
# maps each entry to its IC50
Assay readout: IC50 (µM)

{"Compound": "CC(C)n1cc(COP(=O)(NCCBr)NCCBr)nc1[N+](=O)[O-]", "Units": "µM", "Observed result": 41}
{"Compound": "Cn1c(COP(=O)(NCCBr)NCCBr)cnc1[N+](=O)[O-] [EVOFOSFAMIDE]", "Units": "µM", "Observed result": 61}
{"Compound": "Cn1cnc([N+](=O)[O-])c1COP(=O)(NCCBr)NCCBr", "Units": "µM", "Observed result": 98}
{"Compound": "CCCn1c(COP(=O)(NCCBr)NCCBr)cnc1[N+](=O)[O-]", "Units": "µM", "Observed result": 47}
